Listed here are molecules together with their documented EC50.
- Tested on: SMN protein
- PROTOCOL_SUMMARY: cellular SMN ELISA (SMN protein elevation) in myoblast cell line from SMNdelta7 mouse model
- Assay type: cell-based
- CONDITION_DESCRIPTION: comparison of unsubstituted, ortho-hydroxy and ortho-alkoxy pyridazines; as in Biological Example 1; read-out: SMN ELISA EC50
OBSERVABLE: EC50

{"MOLECULE": "CN(c1ccc(-c2cc3nccnc3cc2O)nn1)C1CC(C)(C)NC(C)(C)C1 [Example 13-1]", "OBSERVABLE": "EC50", "RESULT_VALUE": "9 nM"}
{"MOLECULE": "CN(c1ccc(-c2ccc3cccnc3c2)nn1)C1CC(C)(C)NC(C)(C)C1 [drawing 136 R = H]", "OBSERVABLE": "EC50", "RESULT_VALUE": "370 nM"}
{"MOLECULE": "CN(c1ccc(-c2cc3cccnc3cc2O)nn1)C1CC(C)(C)NC(C)(C)C1 [Example 1-1]", "OBSERVABLE": "EC50", "RESULT_VALUE": "20 nM"}
{"MOLECULE": "CN(c1ccc(-c2ccc3cnccc3c2)nn1)C1CC(C)(C)NC(C)(C)C1 [drawing 138 R = H]", "OBSERVABLE": "EC50", "RESULT_VALUE": "320 nM"}

----------
- Tested on: SMN protein
- PROTOCOL_SUMMARY: cellular SMN ELISA (SMN protein elevation) in myoblast cell line from SMNdelta7 mouse model
- Assay type: cell-based
- CONDITION_DESCRIPTION: Biological Example 1; SMN ELISA, SMNdelta7 mouse myoblasts, 24 hours compound treatment; read-out: SMN Activity (EC50)
pEC50: −log10 of the molar value.

{"COMPOUND_STRUCTURE_STRING": "Cc1cc2cc(O)c(-c3ccc(N4CCNCC4)nn3)cc2cn1", "pEC50": 6.91}
{"COMPOUND_STRUCTURE_STRING": "CN(c1ccc(-c2cc3c(C(N)=O)nccc3cc2O)nn1)C1CC(C)(C)NC(C)(C)C1", "pEC50": 8.15}
{"COMPOUND_STRUCTURE_STRING": "Cc1cc(N2CCCC2)c2cc(-c3ccc(N(C)C4CC(C)(C)NC(C)(C)C4)nn3)c(O)cc2n1", "pEC50": 7.19}
{"COMPOUND_STRUCTURE_STRING": "CN1C[C@@H]2CN(c3ccc(-c4cc5cnccc5cc4O)nn3)C[C@@H]2C1", "pEC50": 7.22}
{"COMPOUND_STRUCTURE_STRING": "CN(c1ccc(-c2cc3ncc(Cl)cc3cc2O)nn1)C1CC(C)(C)NC(C)(C)C1", "pEC50": 7.80}
{"COMPOUND_STRUCTURE_STRING": "CN(c1ccc(-c2cc3ccc(=O)n(C)c3cc2O)nn1)C1CC(C)(C)NC(C)(C)C1", "pEC50": 8.15}
{"COMPOUND_STRUCTURE_STRING": "Oc1cc2ccncc2cc1-c1ccc(N2CCNCC2)nn1", "pEC50": 6.70}
{"COMPOUND_STRUCTURE_STRING": "Cc1ccc2cc(-c3ccc(N(C)C4CC(C)(C)NC(C)(C)C4)nn3)c(O)cc2n1", "pEC50": 7.70}
{"COMPOUND_STRUCTURE_STRING": "Cc1cc(C2COC2)c2cc(-c3ccc(N(C)C4CC(C)(C)NC(C)(C)C4)nn3)c(O)cc2n1", "pEC50": 6.78}
{"COMPOUND_STRUCTURE_STRING": "CN(c1ccc(-c2cc3c(C4CC4)nccc3cc2O)nn1)C1CC(C)(C)NC(C)(C)C1", "pEC50": 7.85}
{"COMPOUND_STRUCTURE_STRING": "CN(c1ccc(-c2cc3cc(-n4ccnc4)cnc3cc2O)nn1)C1CC(C)(C)NC(C)(C)C1", "pEC50": 7.30}
{"COMPOUND_STRUCTURE_STRING": "Cc1cnc2cc(-c3ccc(N(C)C4CC(C)(C)NC(C)(C)C4)nn3)c(O)cc2c1", "pEC50": 8.15}
{"COMPOUND_STRUCTURE_STRING": "Cc1ccc2cc(O)c(-c3ccc(N(C)C4CC(C)(C)NC(C)(C)C4)nn3)cc2n1", "pEC50": 8.40}
{"COMPOUND_STRUCTURE_STRING": "CN(c1ccc(-c2cc3cc(-c4cn(C)cn4)cnc3cc2O)nn1)C1CC(C)(C)NC(C)(C)C1", "pEC50": 6.70}
{"COMPOUND_STRUCTURE_STRING": "Cc1cc2cc(O)c(-c3ccc(N(C)C4CC(C)(C)NC(C)(C)C4)nn3)cc2cn1", "pEC50": 8.05}
{"COMPOUND_STRUCTURE_STRING": "Cc1cc(N2CCC2)c2cc(-c3ccc(N(C)C4CC(C)(C)NC(C)(C)C4)nn3)c(O)cc2n1", "pEC50": 7.08}
{"COMPOUND_STRUCTURE_STRING": "CN(c1ccc(-c2c(O)ccc3cccnc23)nn1)C1CC(C)(C)NC(C)(C)C1", "pEC50": 6.52}
{"COMPOUND_STRUCTURE_STRING": "Cc1nc2cc(O)c(-c3ccc(N(C)C4CC(C)(C)NC(C)(C)C4)nn3)cc2nc1C", "pEC50": 7.82}
{"COMPOUND_STRUCTURE_STRING": "COc1ccnc2cc(O)c(-c3ccc(N(C)C4CC(C)(C)NC(C)(C)C4)nn3)cc12", "pEC50": 8.00}
{"COMPOUND_STRUCTURE_STRING": "COc1ccnc2cc(-c3ccc(N(C)C4CC(C)(C)NC(C)(C)C4)nn3)c(O)cc12", "pEC50": 8.52}
{"COMPOUND_STRUCTURE_STRING": "Cc1nccc2cc(-c3ccc(N(C)C4CC(C)(C)NC(C)(C)C4)nn3)c(O)cc12", "pEC50": 7.85}
{"COMPOUND_STRUCTURE_STRING": "CN(c1ccc(-c2cc3ccc(C#N)nc3cc2O)nn1)C1CC(C)(C)NC(C)(C)C1", "pEC50": 8.15}
{"COMPOUND_STRUCTURE_STRING": "Cc1cc(N2CCOCC2)c2cc(-c3ccc(N(C)C4CC(C)(C)NC(C)(C)C4)nn3)c(O)cc2n1", "pEC50": 6.96}
{"COMPOUND_STRUCTURE_STRING": "Cc1cc(N(C)C)c2cc(-c3ccc(N(C)C4CC(C)(C)NC(C)(C)C4)nn3)c(O)cc2n1", "pEC50": 7.92}
{"COMPOUND_STRUCTURE_STRING": "CN(c1ccc(-c2cc3cc(Br)cnc3cc2O)nn1)C1CC(C)(C)NC(C)(C)C1", "pEC50": 8.10}
{"COMPOUND_STRUCTURE_STRING": "CN(c1ccc(-c2cc3ncccc3cc2O)nn1)C1CC(C)(C)NC(C)(C)C1", "pEC50": 8.15}
{"COMPOUND_STRUCTURE_STRING": "CCOc1cc(C)nc2cc(O)c(-c3ccc(N(C)C4CC(C)(C)NC(C)(C)C4)nn3)cc12", "pEC50": 7.70}
